MEASURED_ON: T1, HLA-A*0201 molecule on human T2 cells (human)
T1 construct: MHC class I molecule on T2 cells; also called HLA.A2.01
MEASUREMENT_DESCRIPTION: T2 cell HLA-A*0201 binding assay, flow cytometry
Could you please report measured concentration inducing 20% of expression of HLA-A*0201 for the items listed next?
Numbers only; they are read as µM.

Look at this binder and give its reported concentration inducing 20% of expression of HLA-A*0201. FLPFGFILV (9-mer synthetic peptide; also called IL13RA2-B pAg) [bacterial peptide IL13RA2-B (SEQ ID NO: 18, FLPFGFILV)] 4.4

Look at this binder and give its reported concentration inducing 20% of expression of HLA-A*0201. LMDLSTTEV (also called FOXM1-B2 pAg) [bacterial peptide FOXM1-B2 (SEQ ID NO: 75, LMDLSTTEV)] 6.7

Look at this binder and give its reported concentration inducing 20% of expression of HLA-A*0201. WLPFGFILI (9-mer peptide derived from human IL13RA2; also called IL13RA2-H pAg) [human IL13RA2 reference epitope IL13RA2-H (SEQ ID NO: 1, WLPFGFILI)] 100

Look at this binder and give its reported concentration inducing 20% of expression of HLA-A*0201. LMDLSTTPL (9-mer peptide derived from human FOXM1; also called FOXM1-H2 pAg) [human FOXM1 reference epitope FOXM1-H2 (SEQ ID NO: 59, LMDLSTTPL)] 12.6
